- Tested on: LoVo;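 note: growth inhibition of human LoVo cells, read out with a cell viability assay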
- experimental_protocol: cells
- Type: functional, cell-based
- conditions_used: Homo sapiens
- Description: SANGER: Inhibition of human LoVo cell growth in a cell viability assay.
measurement_name: IC50

{"columns": ["compound", "tested_system", "observed_measurement"],
 "data": [
  ["C[C@]1(O)C[C@@H](c2nc(-c3ccc4ccc(-c5ccccc5)nc4c3)c3c(N)nccn32)C1", "LoVo", "> 2.56 µM"],
  ["Cc1ccc(Nc2nccc(N(C)c3ccc4c(C)n(C)nc4c3)n2)cc1S(N)(=O)=O", "LoVo", "> 8 µM"],
  ["Cn1cncc1[C@@](N)(c1ccc(Cl)cc1)c1ccc2c(c1)c(-c1cccc(Cl)c1)cc(=O)n2C", "LoVo", "0.241 µM"],
  ["CN(Cc1cnc2nc(N)nc(N)c2n1)c1ccc(C(=O)N[C@@H](CCC(=O)O)C(=O)O)cc1 [METHOTREXATE]", "LoVo", "> 0.2 µM"],
  ["O=C1N=C(NCc2cccs2)S/C1=C\\c1ccc2ncccc2c1", "LoVo", "> 5 µM"],
  ["COC(=O)CNC(=O)C(=O)OC", "LoVo", "951 µM"]
]}
